tested on: CEM cells HIV-1 protection, formazan growth assay; test: NCI AIDS Antiviral Assay
Recorded EC50 values for a group of molecules are listed next.

| molecule | measuredOn | EC50 |
| --- | --- | --- |
| CCN(CC)CCC(=O)c1ccc(OC)cc1 | CEM cells HIV-1 protection, formazan growth assay | > 912 µM |
| CCCCC1OCCOC1C1COCCO1 (stereo unspecified) | CEM cells HIV-1 protection, formazan growth assay | > 195 µM |
| CCNC(=S)NNC(=O)c1csc(NC(=S)NC2CCCCC2)n1 | CEM cells HIV-1 protection, formazan growth assay | > 200 µM |
| Cc1cc(C2CC(O)C(CO)O2)c(F)cc1F (stereo unspecified) | CEM cells HIV-1 protection, formazan growth assay | > 200 µM |
| COc1ccc(C2=NN(C(=O)COc3ccc(Cl)cc3)C(O)(c3ccc(Cl)cc3)C2)cc1 (stereo unspecified) | CEM cells HIV-1 protection, formazan growth assay | > 11 µM |

Here's the next entry for you.
Q: Please look up its EC50: "CNS(=O)(=O)NN(C)S(=O)(=O)c1ccccc1"
Result: > 891 µM

====

test system: CEM cells HIV-1 protection, formazan growth assay; assay: NCI AIDS Antiviral Assay;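 active means compounds giving half or more protection of infected cells from virus-caused growth loss, again on retest; inactive means the rest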
In this exercise, the only acceptable responses are TRUE = active, FALSE = inactive

Worked examples, 5 molecules total:
| molecule | discreteLabel |
| --- | --- |
| CC1(C)OCC(CO)(Nc2nc(N3CC3)nc(N3CC3)n2)CO1 | FALSE |
| O=[N+]([O-])c1ccc2c(c1)nc1n2C(c2c(F)cccc2F)SC1 (stereo unspecified) | TRUE |
| O=[N+]([O-])O | FALSE |
| N#C/C=C\c1ccc(-c2cc(C(F)(F)F)cc(C(F)(F)F)c2)o1 | FALSE |
| CCOC(=O)C1(N)CC1 | FALSE |

Query molecule follows.
Q: I'd appreciate the recorded outcome for "O=C1C(=O)N(c2cc(Cl)ccc2Cl)C(=O)C(=O)C1c1nc2ccccc2o1" from this test.
Result: FALSE

====

system: CEM cells HIV-1 protection, formazan growth assay; experiment: NCI AIDS Antiviral Assay; settings: measured here: growth of uninfected CEM cells
Overview of recorded log10 of IC50 for various compounds
Answers are given as log10 of IC50 in µM.

| compound | measuredOn | log10 of IC50 |
| --- | --- | --- |
| Fc1ccc(C2SCc3nc4ccccc4n32)cc1Cl (stereo unspecified) | CEM cells HIV-1 protection, formazan growth assay | 1.41 |
| O=Cc1c2c(cc3c1CC1(C3)Cc3cc4c(c(C=O)c3C1)CCC4)CCC2 | CEM cells HIV-1 protection, formazan growth assay | 1.54 |
| CSc1nc(=O)c(C#N)c(-c2ccccc2)n1C1OC(COC(C)=O)C(OC(C)=O)C(OC(C)=O)C1OC(C)=O (stereo unspecified) | CEM cells HIV-1 protection, formazan growth assay | 1.97 |
| C/C(=N\Nc1ccccc1Br)c1cccc(/C(C)=N/Nc2ccccc2Br)n1 | CEM cells HIV-1 protection, formazan growth assay | 1.93 |
| Nc1cc(N)c(N=Nc2ccc(/C=C\c3ccc(N=Nc4c(N)cc(N)cc4C(=O)O)cc3S(=O)(=O)O)c(S(=O)(=O)O)c2)c(C(=O)O)c1.[Zn+2] | CEM cells HIV-1 protection, formazan growth assay | 1.37 |
| O=C(N/N=C/c1ccco1)c1ccc(OCc2nc3ccccc3[nH]2)cc1 | CEM cells HIV-1 protection, formazan growth assay | 1.92 |

Next item in the queue.
Q: Sample COc1cc(C2c3cc4c(cc3OC(N3CCCC3)C2C)OCO4)cc(OC)c1O (stereo unspecified) — what was its log10 of IC50?
Result: 0.78
